Where do the numbers come from? From a melting point compilation (Tetko et al.; mined from patent text by program, amines drawn as free bases though some values may be those of a salt).

QUANTITY_MEASURED: melting point

Solved entries (count: 5):
sample_smiles=Cc1sc(N2CCOCC2)nc1CCl result="110 to 111 °C"
sample_smiles=COc1nc(C)nc(NC(=O)NS(=O)(=O)Cc2ccccc2-c2nnc(SC)o2)n1 result="175 to 177 °C"
sample_smiles=O=C(O)c1cc(Cl)cc(Cl)c1[N+](=O)[O-] result="190 to 192 °C"
sample_smiles=C/C=C(\Br)C(=O)Nc1cccc(F)c1 result="44 to 45.5 °C"
sample_smiles=COc1cc(Nc2nnc(Cc3ccncc3)c3ccccc23)cc(OC)c1OC result="110 to 111 °C"

Query: melting point; subject: CC(C)(C(=O)O)c1oc2cccc-2cc1-c1ccccc1 169 to 171 °C

----------
QUANTITY_MEASURED: melting point (°C)

compound=O=C(Nc1ncc(C(F)(F)F)o1)C1c2ccccc2Oc2ccccc21 quantity_measured="melting point" result=218
compound="CCc1ccc2c(c1)C=Cc1cc(C)ccc1C2c1cn(Cc2ccc(C(=O)Nc3nnn[nH]3)o2)c(=O)[nH]c1=S (stereo not given)" quantity_measured="melting point" result=260

----------
QUANTITY_MEASURED: melting point

Query: melting point; subject: CC(=O)Oc1ccccc1C(=O)Nc1ncc(S(C)(=O)=O)s1 173 to 175 °C

----------
Parameter melting point: see the listing below.

molecule=CC(C)n1nc(-c2sc(NC(=O)CCN3CCOCC3)nc2-c2ccccc2)ccc1=O quantity_measured="melting point" result="197 to 198 °C"
molecule=CO[C@@H]1C=C2C=C3C(=C(C)C(=O)N3C)C[C@]2(C)[C@@H](C)[C@H]1OC(=O)c1ccco1 quantity_measured="melting point" result="155 to 158 °C"
molecule=O=C(N[C@H]1CC[C@H](CCN2CCN(c3nccc4c3CCO4)CC2)CC1)c1ccccc1 quantity_measured="melting point" result="208 °C"
molecule=CC(=O)O[C@H]1CC[C@H](CCCCCC(=O)O)CC1 quantity_measured="melting point" result="82 to 86 °C"
molecule="CS(=O)c1nnc(-c2ccccc2NC(=O)c2cccc(C(F)(F)F)c2)s1 (configuration not stated)" quantity_measured="melting point" result="125 to 126 °C"

Query: melting point; subject: O=C(CCc1ccccc1)Nc1c(Cl)ccc2nc(N3CCNCC3)ccc12 231 to 234 °C

Query: melting point; subject: COC(=O)C1=C(C)NC(CO)=C(C(=O)OC)C1c1ccccc1C#N (configuration not stated) 177 to 178 °C

Query: melting point; subject: CCOC(=O)c1cc2c(F)cc(F)cc2[nH]1 153 to 154 °C

Query: melting point; subject: CC(C)CCNc1ccccc1NCC12CC3CC(CC(C3)C1)C2 64 to 65 °C

Query: melting point; subject: Cn1c2c(c3ccccc31)C(=O)C(CNC1=NCCN1)CS2 (configuration not stated) 245 to 247 °C

Query: melting point; subject: COC(=O)c1coc(-c2ncn3c2CN(C)C(=O)c2c(Cl)cccc2-3)n1 266 to 268 °C

Query: melting point; subject: Cc1nn(C)c2nc(N)[nH]c(=O)c12 > 300 °C

Query: melting point; subject: CCCC1CCc2c(c(F)c(F)c3oc(C)cc23)O1 (configuration not stated) 75 °C

Query: melting point; subject: CCCS(=O)c1cccc(-c2nc(=O)c3ccccc3s2)n1 (configuration not stated) 175 °C

Query: melting point; subject: CN1C(=O)CCC2(C)C3CCC4(C)C(OCC(=O)O)CCC4C3CCC12 (configuration not stated) 180 to 184 °C

Query: melting point; subject: Nc1ncnc2c1c(I)cn2C1CC(O)C(CO)O1 (configuration not stated) 194 °C

Query: melting point; subject: O=C1c2ccccc2C(=O)N1C1CCN(Cc2ccccc2)CC1 154 to 157 °C

Query: melting point; subject: Cc1ccc2nc(-c3ccccc3F)cc(OCc3ccccc3)c2c1 91.5 to 92.8 °C

Query: melting point; subject: C=Cn1cc(C(=O)O)c(=O)c2cc(F)c(N3CCNCC3)cc21 248 to 251 °C

Query: melting point; subject: O=c1ncc(C(F)(F)F)cn1COCc1ccc(Cl)cc1 120 °C

Query: melting point; subject: COc1cc(S(C)(=O)=O)c(F)cc1OCCCl 85 to 87 °C

Query: melting point; subject: Cc1ccc(S(=O)(=O)c2nc(Cl)c([N+](=O)[O-])s2)cc1 153 to 154 °C
